settings: in acetonitrile, 283.15 K
property: solubility (mole fraction)
The answer should be a number; do not append a unit.

Task item: Sample Cc1c(-c2ccccc2)oc2c(C(=O)OCCN3CCCCC3)cccc2c1=O.Cl — what was its solubility (mole fraction)?
Reply: 3.71e-05

---

details: in ethylene glycol, 283.15 K
property: solubility (mole fraction)
The answer should be a number; do not append a unit.

Task item: Sample Cc1c(-c2ccccc2)oc2c(C(=O)OCCN3CCCCC3)cccc2c1=O.Cl — what was its solubility (mole fraction)?
Reply: 0.00115

---

conditions: in NMP, 318.15 K
property: solubility (mole fraction)
The answer should be a number; do not append a unit.

Task item: Sample Cc1c(-c2ccccc2)oc2c(C(=O)OCCN3CCCCC3)cccc2c1=O.Cl — what was its solubility (mole fraction)?
Reply: 0.00109

---

details: in n-butanol, 278.15 K
property: solubility (mole fraction)
The answer should be a number; do not append a unit.

Task item: Sample Cc1c(-c2ccccc2)oc2c(C(=O)OCCN3CCCCC3)cccc2c1=O.Cl — what was its solubility (mole fraction)?
Reply: 3.52e-05

---

settings: in n-butanol, 313.15 K
property: solubility (mole fraction)
The answer should be a number; do not append a unit.

Task item: Sample Cc1c(-c2ccccc2)oc2c(C(=O)OCCN3CCCCC3)cccc2c1=O.Cl — what was its solubility (mole fraction)?
Reply: 0.000303

---

conditions: in ethanol, 323.15 K
property: solubility (mole fraction)
The answer should be a number; do not append a unit.

Task item: Sample Cc1c(-c2ccccc2)oc2c(C(=O)OCCN3CCCCC3)cccc2c1=O.Cl — what was its solubility (mole fraction)?
Reply: 0.000565

---

details: in 2-methoxyethanol, 293.15 K
property: solubility (mole fraction)
The answer should be a number; do not append a unit.

Task item: Sample Cc1c(-c2ccccc2)oc2c(C(=O)OCCN3CCCCC3)cccc2c1=O.Cl — what was its solubility (mole fraction)?
Reply: 0.000675

---

conditions: in methanol, 283.15 K
property: solubility (mole fraction)
The answer should be a number; do not append a unit.

Task item: Sample Cc1c(-c2ccccc2)oc2c(C(=O)OCCN3CCCCC3)cccc2c1=O.Cl — what was its solubility (mole fraction)?
Reply: 0.000637

---

details: in n-butanol, 298.15 K
property: solubility (mole fraction)
The answer should be a number; do not append a unit.

Task item: Sample Cc1c(-c2ccccc2)oc2c(C(=O)OCCN3CCCCC3)cccc2c1=O.Cl — what was its solubility (mole fraction)?
Reply: 0.000124

---

settings: in 2-methoxyethanol, 278.15 K
property: solubility (mole fraction)
The answer should be a number; do not append a unit.

Task item: Sample Cc1c(-c2ccccc2)oc2c(C(=O)OCCN3CCCCC3)cccc2c1=O.Cl — what was its solubility (mole fraction)?
Reply: 0.000431

---

conditions: in water, 288.15 K
property: solubility (mole fraction)
The answer should be a number; do not append a unit.

Task item: Sample Cc1c(-c2ccccc2)oc2c(C(=O)OCCN3CCCCC3)cccc2c1=O.Cl — what was its solubility (mole fraction)?
Reply: 0.000301

---

conditions: in ethylene glycol, 298.15 K
property: solubility (mole fraction)
The answer should be a number; do not append a unit.

Task item: Sample Cc1c(-c2ccccc2)oc2c(C(=O)OCCN3CCCCC3)cccc2c1=O.Cl — what was its solubility (mole fraction)?
Reply: 0.002
